These measurements were taken from patent US20260209362A1.

experimental target: T1, biotinylated recombinant human IL-12Rβ2 (human, UniProt Q99665 24-622, random biotinylated)
T1 construct: Recombinant protein produced in-house; also called hIL-12RB2; human IL-12RB2
T1 sequence: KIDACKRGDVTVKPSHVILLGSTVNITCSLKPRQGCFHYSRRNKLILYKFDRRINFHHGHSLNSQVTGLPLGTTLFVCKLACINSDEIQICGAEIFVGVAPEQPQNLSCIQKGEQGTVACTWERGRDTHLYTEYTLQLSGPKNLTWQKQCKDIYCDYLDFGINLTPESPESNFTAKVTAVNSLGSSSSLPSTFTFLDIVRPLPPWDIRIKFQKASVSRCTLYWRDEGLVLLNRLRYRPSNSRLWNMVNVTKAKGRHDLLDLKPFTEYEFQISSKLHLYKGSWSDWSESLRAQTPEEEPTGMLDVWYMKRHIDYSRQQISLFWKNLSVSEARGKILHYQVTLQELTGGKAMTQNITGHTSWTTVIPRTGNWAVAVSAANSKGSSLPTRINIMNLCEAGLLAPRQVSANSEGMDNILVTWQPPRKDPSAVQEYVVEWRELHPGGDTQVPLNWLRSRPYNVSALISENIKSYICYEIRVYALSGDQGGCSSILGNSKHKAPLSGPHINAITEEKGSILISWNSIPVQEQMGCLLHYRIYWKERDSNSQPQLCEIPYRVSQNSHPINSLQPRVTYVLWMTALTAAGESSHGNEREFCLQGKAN
assay overview: BLI, P.E., off-rate ranking
experimental endpoint: koff
Could you write the number and then its unit?

anti-IL-12Rβ2 VHH clone 2CAH27 (clone ID 20354) (VHH, not shown: small tags and cut ends, periplasmic extract) VHH: QVQLQESGGGSVQSGGSLRLSCVASGRTFSSYAMGWFRQGPGKEREFVAAISWSGVSIYYADSVKGRFTISRDNAKNTVYLQMNSLEPEDTAVYYCAGTEGAYTVAGGSTFGYDMDYWGKGTQVTVSS
0.00494 s⁻¹
anti-IL-12Rβ2 VHH clone 3CAHS43 (clone ID 20395) (VHH, not shown: small tags and cut ends, periplasmic extract) VHH: QVQLQESGGGSVQAGGSLRLSCAASGRTINAYIMGWFRQAPGKEREFVAAVSGSGGSTYYADSVKGRFTISRDNAKNTVNLQMDNLRSEDTDVYYCAATYESVYLRNPGQYDYWGQGTQVTVSS
0.00485 s⁻¹
anti-IL-12Rβ2 VHH clone 3CRHS77 (clone ID 20425) (VHH, not shown: small tags and cut ends, periplasmic extract) VHH: QVQLQESGGGLVQAGGSLRLSCTASGHTFSSYTTIGWFRQAPGKEREFVAAIGWSGDITDYADAVKGRFTISRHNVENTVYLQMNSLNPEDTAVYYCARGYSEYGVLSRNRGLYAYWGQGTQVTVSS
0.00426 s⁻¹

Input line: Bench note: what koff did anti-IL-12Rβ2 VHH clone 2CRH60 (clone ID 20367) (VHH, not shown: small tags and cut ends, periplasmic extract) VHH: QVQLQESGGGSVQPGGSLRLTCAASGFTFSTSGMHWFRQAPGKGLEWVSSISSGGGDTYYTDSVKGRITISRDNAKNTLYLQLNDLKSEDTAVYYCSKDPSGATRGQGTQVTVSS show?
Output line: 0.00533 s⁻¹
